Ref: PubChem BioAssay (NCI)

System: MCF7 breast
Test: NCI tumour cell line growth inhibition, 48 h
Measured TGI by item
assay.endpoint: TGI (µM)

compound | subject.of.test | assay.endpoint | measure.unit | comparator | observed.value
COC(=O)c1ccc(CCc2cc(O)c(Br)cc2O)cc1 | MCF7 breast | TGI | µM | = | 28.1
Cc1ccc(/C=N/Nc2nncc3ccccc23)s1 | MCF7 breast | TGI | µM | > | 100
Cc1ccc(Nc2nc(=O)[nH]c(=O)[nH]2)cc1N=[N+]=[N-] | MCF7 breast | TGI | µM | > | 100
CN(C)c1ccc2cc(-c3cc4c(oc3=O)-c3ccccc3OC4O)c(=O)oc2c1 (stereo unspecified) | MCF7 breast | TGI | µM | = | 11.2
C/C(=N\O)c1cccc(Nc2nc3ccccc3c3occc23)c1 | MCF7 breast | TGI | µM | = | 37.1
Oc1ccc2ccccc2c1N=Nc1ccccn1 | MCF7 breast | TGI | µM | > | 100

* * *

System: SK-MEL-2 melanoma
Test: NCI tumour cell line growth inhibition, 48 h
Measured TGI by item
assay.endpoint: TGI

molecule | observed.value
Cc1ccc2c(N/N=C\c3ccco3)cc(C)nc2n1 | 8.77 µM
COc1ccc(N=C2C(=Nc3ccc(OC)cc3)N(S(=O)(=O)c3ccccc3)C(=S)N2c2ccc(OC)cc2)cc1 | > 100 µM
CC(C)NC(=O)OCc1c(COC(=O)NC(C)C)c(-c2ccc[n+](COC(=O)C3CC3)c2)n2c1CCC2 | > 100 µM
COc1cc([C@@H]2c3cc4c(cc3[C@H](OC(C)=O)[C@H]3COC(=O)[C@H]23)OCO4)cc(OC)c1OC | > 100 µM
O=C(O)CCSC(=O)Nc1cccc([N+](=O)[O-])c1 | > 100 µM
CC(C(=O)c1ccccc1)C1(O)C(=O)Nc2ccccc21 (stereo not given) | > 100 µM
COc1cc(C(=O)Nc2c3ccccc3nc3ccccc23)cc(OC)c1OC | > 100 µM
O=C1CCC2=C3C4CCCCC4C(=O)C4CCCC(OC2C1)C34 (stereo not given) | 4.14 µM
CC(=O)O[C@H]1C(=O)[C@@]2(C)[C@H]([C@H](OC(=O)c3ccccc3)[C@]3(O)C[C@H](OC(=O)[C@H](O)[C@@H](NC(=O)CC(C)C)c4ccccc4)C(C)=C1C3(C)C)[C@]1(OC(C)=O)CO[C@@H]1C[C@@H]2O | > 10 µM
C[C@]12CC(C#N)C(=O)C(O)=C1CC[C@@H]1C2CC[C@@]2(C)C1CC[C@@H]2O (stereo not given in full) | > 100 µM
CC(=N/NC(=S)N1CCCCC1)/C(C)=N\NC(=S)N1CCCCC1 | 4.65 µM
CN[C@@H](C)[C@H](OP(=O)(O)OC1[C@@H](O)[C@H](O)C(O)[C@H](O)[C@@H]1O)c1ccccc1 (stereo not given in full) | > 100 µM
C=C1SC(=Nc2ccccc2Cl)N(C(=O)c2sc3ccccc3c2Cl)C1(C)C | 31.9 µM
CCn1cc(C(=O)N/N=C/c2cccc(F)c2)c(=O)c2cc(F)c(N3CCNC(C)C3)c(F)c21 (stereo not given) | 3.86 µM
NCC1OC(n2cnc3c(=O)[nH]c(N)nc32)C(O)C1O (stereo not given) | > 100 µM

* * *

Tested on: MALME-3M melanoma
Assay: NCI tumour cell line growth inhibition, 48 h
Measured TGI by item
assay.endpoint: TGI

compound | observed.value
CC(C)CC1[C@@H](OCc2ccccc2)COS(=O)(=O)N1Cc1ccccc1 (stereo not given in full) | > 100 µM
CC1(C)N=C(/C=N/O)C(C)(C)N1O | > 100 µM
CCOC(=O)C(C)(C)/C=C\C(Cl)=C(Cl)Cl | > 100 µM
O=C1OC[C@@H]2Cc3c([nH]c4ccccc34)[C@@H](c3cc(O)c(O)c(O)c3)N12 | 49.7 µM
NC12CC3CC4C1CC1CC2C(C3)C4(N)C1 | > 100 µM
